Experiment: physchem
Details: pH 5.6
Measured solubility by item

Consider the following illustrative entries.
1. Ac-INWLKLGKKILGAL-NH2 [PDD-B, INWLKLGKKILGAL]    > 20 mg/mL
2. Ac-INLLKIAKGIIKSL-NH2 [EMP-AF, INLLKIAKGIIKSL]    > 20 mg/mL
3. Ac-INWKKIFEKVKNLV-NH2 [PDD-A, INWKKIFEKVKNLV]    > 20 mg/mL
4. Ac-INLKAIAAMAKKLL-NH2 [Mastoparan-like_12d, INLKAIAAMAKKLL]    > 20 mg/mL
5. Ac-LKLMGIVKKVLGAL-NH2 [EMP-EM1, LKLMGIVKKVLGAL]    ≥ 10 mg/mL
6. Ac-INWKGIAAMKKLL-NH2 [Mastoparan-like_12b, INWKGIAAMKKLL]    > 20 mg/mL
7. Ac-INLKAIAALARNY-NH2 [Mastoparan-VT7, INLKAIAALARNY]    < 5 mg/mL

# context switch: different substance, same solubility
Lookup: Entry Ac-INWLKLGKMVIDAL-NH2 [Polybia-MPII, INWLKLGKMVIDAL] has what solubility?
Found: > 20 mg/mL

###

Experiment: physchem
Details: pH 5.6
reported metric: solubility

Lookup: Entry CC[C@H](C)[C@H](NC(=O)[C@H](CC(=O)O)NC(=O)[C@H](Cc1ccccc1)NC(C)=O)C(=O)N[C@@H](CCSC)C(=O)NCC(=O)N[C@@H](CC(C)C)C(=O)N[C@H](C(=O)N[C@@H](CCCCN)C(=O)N[C@@H](CCCCN)C(=O)N[C@H](C(=O)N[C@@H](C)C(=O)NCC(=O)N[C@@H](C)C(=O)N[C@@H](CC(C)C)C(N)=O)C(C)C)[C@@H](C)CC has what solubility?
Found: ≥ 10000 µg/mL

###

Test: physchem
Conditions: pH 5.6
reported metric: solubility

Consider the following illustrative entries.
1) Ac-INWKGIAAMAKKLL-NH2 [Mastoparan-X, INWKGIAAMAKKLL]    > 20 mg/mL
2) Ac-INLKAITALAKKLL-NH2 [Mastoparan-VT3, INLKAITALAKKLL]    ≥ 10 mg/mL
3) Ac-INWKKIKSLIKAAMS-NH2 [Mastoparan-V2, INWKKIKSLIKAAMS]    > 20 mg/mL
4) Ac-INMKASAAVAKKLL-NH2 [MP-VB1t, INMKASAAVAKKLL]    > 20 mg/mL
5) Ac-INLKAIAALVKKLL-NH2 [Mastoparan-VT6]    > 20 mg/mL
6) Ac-GRILSFIKGLAEHL-NH2 [EMP-OD, GRILSFIKGLAEHL]    > 20 mg/mL

Lookup: Entry Ac-LKLLGIVKKVLGAI-NH2 [EMP-EM2, LKLLGIVKKVLGAI] has what solubility?
Found: < 5 mg/mL

Lookup: Moving on to Ac-INWKKIKSIIKAAMN-NH2 [Mastoparan-V1, INWKKIKSIIKAAMN]
Found: > 20 mg/mL

Lookup: Moving on to Ac-VIVKAIATLSKKLL-NH2 [Mastoparan-VT5, VIVKAIATLSKKLL]
Found: > 20 mg/mL

Lookup: Moving on to Ac-INWKKIASIGKEVLKAL-NH2 [PMM, INWKKIASIGKEVLKAL]
Found: > 20 mg/mL

Lookup: Moving on to Ac-FDVMGIIKKIAGAL-NH2 [EMP-EF, FDVMGIIKKIAGAL]
Found: < 5 mg/mL

Lookup: Moving on to Ac-INLKAIAPLAKKLL-NH2 [Mastoparan-VT4, INLKAIAPLAKKLL]
Found: > 20 mg/mL
